# EXPERIMENTAL PROTOCOL: Oxidation stability (relative percentage of QH) after open storage in a constant temperature bath, HPLC
# Format: physicochemical
# COND: open system, 25° C. and RH 60%, 1 month; relative to initial reduced coenzyme Q10 content as 100
VALUE TYPE: Relative percentage of QH (25° C., 1M) (%)
Report the value in % with no unit label.

Problem: Recorded Relative percentage of QH (25° C., 1M) for COc1c(O)c(C)c(C/C=C(\C)CC/C=C(\C)CC/C=C(\C)CC/C=C(\C)CC/C=C(\C)CC/C=C(\C)CC/C=C(\C)CC/C=C(\C)CC/C=C(\C)CCC=C(C)C)c(O)c1OC [Example 1, reduced coenzyme Q10] , please?
Result: 91.8

Problem: Record: COc1c(O)c(C)c(C/C=C(\C)CC/C=C(\C)CC/C=C(\C)CC/C=C(\C)CC/C=C(\C)CC/C=C(\C)CC/C=C(\C)CC/C=C(\C)CC/C=C(\C)CCC=C(C)C)c(O)c1OC [Example 4, reduced coenzyme Q10]
Result: 92.2

Problem: Record: COc1c(O)c(C)c(C/C=C(\C)CC/C=C(\C)CC/C=C(\C)CC/C=C(\C)CC/C=C(\C)CC/C=C(\C)CC/C=C(\C)CC/C=C(\C)CC/C=C(\C)CCC=C(C)C)c(O)c1OC [Example 3, reduced coenzyme Q10]
Result: 89.4

Problem: Record: COc1c(O)c(C)c(C/C=C(\C)CC/C=C(\C)CC/C=C(\C)CC/C=C(\C)CC/C=C(\C)CC/C=C(\C)CC/C=C(\C)CC/C=C(\C)CC/C=C(\C)CCC=C(C)C)c(O)c1OC [Example 2, reduced coenzyme Q10]
Result: 85.1

Values from patent US20240166589A1
